The values you see were collected from patent US11795460B2.

# reported # Sites in PHH; entries follow
- Tested on: off-target integration sites
- test-description: Off-target oligo insertion based assay in primary human hepatocytes (Table 30)
- Type: cell-based
- condition-set: TTR sgRNAs in PHH, 100 ng Cas9 mRNA, 25 nM sgRNA, 12.5 nM donor oligo
Strand notation (5' to 3'): a small letter for the sugar, then the base; units joined by * are phosphorothioate-linked, units joined directly phosphodiester-linked; [ ] holds rarer units or linkages, { } end groups; capitals alone tell only the bases. m = 2'-O-methyl; r = 2'-OH (RNA)
outcome-measure: # Sites in PHH

molecule	outcome-measure	value-observed
G000493: TTR sgRNA modified sequence, Human, SEQ ID No. 100; guide sequence of CR003368 (nucleic acid) guide: mA*mA*mG*rUrGrCrCrUrUrCrCrArGrUrArArGrArUrUrGrUrUrUrUrArGrAmGmCmUmAmGmAmAmAmUmAmGmCrArArGrUrUrArArArArUrArArGrGrCrUrArGrUrCrCrGrUrUrArUrCrAmAmCmUmUmGmAmAmAmAmAmGmUmGmGmCmAmCmCmGmAmGmUmCmGmGmUmGmCmU*mU*mU*mU	# Sites in PHH	1
G000494: TTR sgRNA modified sequence, Human, SEQ ID No. 101; guide sequence of CR003360 (nucleic acid) guide: mG*mU*mG*rArGrUrCrUrGrGrArGrArGrCrUrGrCrArUrGrUrUrUrUrArGrAmGmCmUmAmGmAmAmAmUmAmGmCrArArGrUrUrArArArArUrArArGrGrCrUrArGrUrCrCrGrUrUrArUrCrAmAmCmUmUmGmAmAmAmAmAmGmUmGmGmCmAmCmCmGmAmGmUmCmGmGmUmGmCmU*mU*mU*mU	# Sites in PHH	0
G000487: TTR sgRNA modified sequence, Human, SEQ ID No. 94; guide sequence of CR003357 (nucleic acid) guide: mU*mU*mC*rUrUrUrGrGrCrArArCrUrUrArCrCrCrArGrGrUrUrUrUrArGrAmGmCmUmAmGmAmAmAmUmAmGmCrArArGrUrUrArArArArUrArArGrGrCrUrArGrUrCrCrGrUrUrArUrCrAmAmCmUmUmGmAmAmAmAmAmGmUmGmGmCmAmCmCmGmAmGmUmCmGmGmUmGmCmU*mU*mU*mU	# Sites in PHH	0
G000490: TTR sgRNA modified sequence, Human, SEQ ID No. 97; guide sequence of CR003366 (nucleic acid) guide: mA*mA*mA*rUrArGrArCrArCrCrArArArUrCrUrUrArCrGrUrUrUrUrArGrAmGmCmUmAmGmAmAmAmUmAmGmCrArArGrUrUrArArArArUrArArGrGrCrUrArGrUrCrCrGrUrUrArUrCrAmAmCmUmUmGmAmAmAmAmAmGmUmGmGmCmAmCmCmGmAmGmUmCmGmGmUmGmCmU*mU*mU*mU	# Sites in PHH	0
G000492: TTR sgRNA modified sequence, Human, SEQ ID No. 99; guide sequence of CR003342 (nucleic acid) guide: mC*mU*mU*rCrUrCrUrArCrArCrCrCrArGrGrGrCrArCrGrUrUrUrUrArGrAmGmCmUmAmGmAmAmAmUmAmGmCrArArGrUrUrArArArArUrArArGrGrCrUrArGrUrCrCrGrUrUrArUrCrAmAmCmUmUmGmAmAmAmAmAmGmUmGmGmCmAmCmCmGmAmGmUmCmGmGmUmGmCmU*mU*mU*mU	# Sites in PHH	5
